systemName: PD-L1 (Homo sapiens (Human), UniProt Q9NZQ7)
Sequence (Q9NZQ7 19-238): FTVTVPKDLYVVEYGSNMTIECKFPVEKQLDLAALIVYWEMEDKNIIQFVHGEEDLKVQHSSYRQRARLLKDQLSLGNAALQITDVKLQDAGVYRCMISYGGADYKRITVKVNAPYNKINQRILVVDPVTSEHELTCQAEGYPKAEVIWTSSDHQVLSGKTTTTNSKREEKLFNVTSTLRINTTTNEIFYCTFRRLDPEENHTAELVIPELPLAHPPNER
Sequence (Q9NZQ7 19-238): as above
assaySummary: PD-L1/PD-L1 dimerization biochemical protein-protein interaction assay (ALPHA)
Format: binding
particulars: 0.5 nM His tagged PD-L1 and 0.5 nM FLAG tagged PD-L1, Table 4B, read-out: AC50 PDL1 Dimer 1 nM
measurementLabel: AC50 (nM)

Would you please look over these solved cases?
| compound | AC50 / nM |
| --- | --- |
| COc1nc(-c2cccc(-c3cccc4c3CC[C@@H]4Oc3nc(OC)c(CN4CCC5(C(=O)O)CC45)cc3Cl)c2Cl)ccc1CNC[C@@H]1CCC(=O)N1 (stereo partly drawn) | 18.4 |
| COc1nc(-c2cccc(-c3cccc4c3CC[C@@H]4Oc3nc(OC)c(CN4CC5(C(=O)O)CCC4CC5)nc3Cl)c2Cl)cnc1CNC[C@@H]1CCC(=O)N1 | 20.2 |

1 = COc1nc(-c2cccc(-c3cccc4c3CC[C@@H]4Oc3nc(OC(F)F)c(CN4CC5(C(=O)O)CCC4CC5)cc3Cl)c2Cl)ccc1CNC[C@@H]1CCC(=O)N1
2 = COc1nc(-c2cccc(-c3cccc4c3CC[C@@H]4Oc3nc(OCc4cncc(C#N)c4)c(CN4CC[C@H](C(=O)O)C4)cc3Cl)c2Cl)ccc1CNC[C@@H]1CCC(=O)N1
3 = COc1nc(-c2cccc(-c3cccc4c3CC[C@@H]4Oc3nc(OC)c(CN4CCC5CC4(C(=O)O)C5)cc3C(F)(F)F)c2Cl)ccc1CN1CC2(CCC(=O)N2)C1
4 = COc1nc(-c2cccc(-c3cccc4c3CC[C@@H]4Oc3nc(OC)c(CN4CC5CCC(C(=O)O)(C5)C4)cc3Cl)c2Cl)ccc1CNC[C@@H]1CCC(=O)N1 (stereo partly drawn)
Order by AC50, ascending. Returns: the labels arranged in the requested order. 3, 2, 1, 4
(3: 6.43 nM, 2: 15.3 nM, 1: 48.6 nM, 4: 71.4 nM)

* * *

systemName: PD-1/PD-L1 (Homo sapiens (Human), UniProt Q9NZQ7)
assaySummary: PD-1/PD-L1 biochemical protein-protein interaction assay (ALPHA)
Assay type: binding
particulars: 0.3 nM His tagged PD-L1, 2.5 nM biotinylated Fc-PD-1, Table 3B, read-out: IC50 PD-L1-PD1
measurementLabel: IC50 (nM)

| compound | IC50 (nM) |
| --- | --- |
| COc1nc(-c2cccc(-c3cccc4c3CC[C@@H]4Oc3nc(OC)c(CN[C@@H](C)C(N)=O)cc3C(F)(F)F)c2Cl)ccc1CNC[C@@H]1CCC(=O)N1 | 0.079 |
| COc1nc(-c2cccc(-c3cccc4c3CC[C@@H]4Oc3nc(OC)c(CNC4(C(=O)O)CC4)cc3C(F)(F)F)c2Cl)ccc1CNC[C@@H]1CC(O)C(=O)N1 (some centres unmarked) | 0.064 |

1 = COc1nc(-c2cccc(-c3cccc4c3CC[C@@H]4Oc3nc(OC)c(CN4CC5(C(=O)O)CCC4CC5)cc3Cl)c2C#N)ccc1CNC[C@@H]1CCC(=O)N1
2 = CNC(=O)C1CCN(Cc2cc(Cl)c(O[C@H]3CCc4c(-c5cccc(-c6ccc(CN7CC(C)(O)C7)c(OC)n6)c5Cl)cccc43)nc2OC)C1 (some centres unmarked)
Exercise: compare 1 and 2 ; which one has the greater IC50? Please reply using the label of the selected record. 2

A = COc1nc(O[C@H]2CCc3c(-c4cccc(-c5cnc(CNC[C@@H]6CCC(=O)N6)c(OC)n5)c4C#N)cccc32)c(Cl)cc1CN1CC[C@@H](C(=O)O)C1
B = CNC(=O)CCNCc1ccc(-c2cccc(-c3cccc4c3CC[C@@H]4Oc3nc(OC)c(CNCCC(=O)NC)cc3Cl)c2Cl)nc1OC
Exercise: compare A and B ; which one has the greater IC50? Please reply using the label of the selected record. B

* * *

systemName: PD-1/PD-L1 (Homo sapiens (Human))
assaySummary: PD-1/PD-L1 biochemical protein-protein interaction assay (ALPHA)
Assay type: binding
particulars: 0.3 nM His tagged PD-L1, 2.5 nM biotinylated Fc-PD-1, readings of 0.064 nM are equal to or less than 0.064 nM, read-out: IC50 PD-L1-PD1
measurementLabel: IC50

Would you please look over these solved cases?
| compound | measurementLabel | valueObserved |
| --- | --- | --- |
| COc1cc(-c2cccc(-c3cccc4c3CC[C@@H]4Nc3nc(OC)c(CNCC(=O)O)nc3C(F)(F)F)c2Cl)ccc1CNC1CC(O)(CF)C1 (stereo partly drawn) | IC50 | ≤ 0.064 nM |
| COc1nc(-c2cccc(-c3cccc4c3CC[C@@H]4Nc3nc(OC)c(CN[C@@H](C)C(=O)O)nc3C(F)(F)F)c2Cl)ccc1CN1CC(C)(O)C1 | IC50 | ≤ 0.064 nM |
| COc1nc(-c2cccc(-c3cccc4c3CC[C@@H]4Nc3nc(OC)c(CNC4(C(=O)O)CCC4)cc3C(F)(F)F)c2Cl)ccc1CNCC1CCC(=O)N1 (stereo partly drawn) | IC50 | ≤ 0.064 nM |

Identify measured IC50 corresponding to COc1nc(-c2cccc(-c3cccc4c3CC[C@@H]4Nc3nc(OC)c(CN4CC(C(=O)O)C4)cc3C(F)(F)F)c2Cl)ccc1CN[C@H]1C[C@](C)(O)C1 ≤ 0.064 nM

Identify measured IC50 corresponding to COc1nc(-c2cccc(-c3cccc4c3CC[C@@H]4Nc3nc(OC)c(CN4CC[C@@](C)(C(=O)O)C4)cc3C(F)(F)F)c2Cl)ccc1CNC[C@@H]1CCC(=O)N1 ≤ 0.064 nM

Identify measured IC50 corresponding to COc1nc(-c2cccc(-c3cccc4c3CC[C@@H]4Nc3nc(OC)c(CN4CC(C(=O)O)C4)cc3C(F)(F)F)c2Cl)ccc1CN1CC(C)(O)C1 ≤ 0.064 nM

Identify measured IC50 corresponding to COc1nc(-c2cccc(-c3cccc4c3CC[C@@H]4Nc3nc(OC)c(CNCC(=O)O)nc3C(F)(F)F)c2Cl)ccc1CNC[C@H]1C[C@H](O)C1 ≤ 0.064 nM

Identify measured IC50 corresponding to COc1nc(-c2cccc(-c3cccc4c3CC[C@@H]4Nc3nc(OC)c(CN4CC5(CCC(=O)N5)C4)cc3Cl)c2Cl)ccc1CNC[C@@H]1CCC(=O)N1 1.18 nM

* * *

systemName: PD-L1 (Homo sapiens (Human))
assaySummary: PD-L1/PD-L1 dimerization biochemical protein-protein interaction assay (ALPHA)
Format: binding
particulars: 0.5 nM His tagged PD-L1 and 0.5 nM FLAG tagged PD-L1, Table 4A, read-out: AC50 PDL1 Dimer 1 nM
measurementLabel: AC50 (nM)

| compound | resultUnit | valueObserved |
| --- | --- | --- |
| CCC1C(C(=O)O)CCN1Cc1nc(C(F)(F)F)c(N[C@H]2CCc3c(-c4cccc(-c5ccc(CNC[C@@H]6CCC(=O)N6)c(OC)n5)c4Cl)cccc32)nc1OC (stereo partly drawn) | nM | 26.6 |
| COc1nc(-c2cccc(-c3cccc4c3CC[C@@H]4Nc3nc(OC)c(CNCC(N)=O)nc3C(F)(F)F)c2Cl)ccc1CNC[C@@H]1CCC(=O)N1 | nM | 40.2 |
| COc1nc(-c2cccc(-c3cccc4c3CC[C@@H]4Nc3nc(OC)c(CNC(C)(C)C(=O)O)cc3C(F)(F)F)c2Cl)ccc1CNC[C@@H]1CCC(=O)N1 | nM | 6.81 |
| COc1nc(N[C@H]2CCc3c(-c4cccc(-c5ccc(CNC[C@@H]6CCC(=O)N6)c(OCC#N)n5)c4Cl)cccc32)c(C(F)(F)F)cc1CN1CCC[C@@]1(C)C(=O)O | nM | 7.77 |

I = COc1cc(N[C@H]2CCc3c(-c4cccc(-c5ccc(CNC[C@@H]6CCC(=O)N6)c(OC)n5)c4Cl)cccc32)c(C(F)(F)F)nc1CN
II = COc1nc(-c2cccc(-c3cccc4c3CC[C@@H]4Nc3nc(OC)c(CN4CC[C@@](C)(C(=O)O)C4)nc3C(F)(F)F)c2Cl)ccc1CN1CC(C)(O)C1
Exercise: compare I and II ; which one has the greater AC50? Please reply using the label of the selected record. II

* * *

systemName: PD-L1 (Homo sapiens (Human), UniProt Q9NZQ7)
assaySummary: PD-L1/PD-L1 dimerization biochemical protein-protein interaction assay (ALPHA)
Type: binding
particulars: 0.5 nM His tagged PD-L1 and 0.5 nM FLAG tagged PD-L1, Table 4B, read-out: AC50 PDL1 Dimer 1 nM
measurementLabel: AC50 (µM)

I = COc1nc(-c2cccc(-c3cccc4c3CC[C@@H]4Oc3nc(OC)c(CN4CC5(C(=O)O)CCC4CC5)cc3C(F)(F)F)c2Cl)ccc1CN[C@H]1C[C@](C)(O)C1 [B-4]
II = COc1cc(-c2cccc(-c3cccc4c3CC[C@@H]4Oc3nc(OC)c(CNC4(C(=O)O)CC4)cc3C(F)(F)F)c2Cl)cc(F)c1CNC[C@@H]1CCC(=O)N1 [B-193]
III = COc1nc(O[C@H]2CCc3c(-c4cccc(-c5cnc(CNC[C@@H]6CCC(=O)N6)c(OC)n5)c4C)cccc32)c(Cl)cc1CN1CC[C@@H](C(=O)O)C1 [B-81]
Could you put the items above in increasing order of their AC50? Returns: the labels arranged in the requested order. II, I, III

Sourced from patent US10774071B2
